molecular target: human TNIK (N-terminal segment, TNIK_N, residues 1-314) (Homo sapiens (Human))
Sequence (Q9UKE5 1-314): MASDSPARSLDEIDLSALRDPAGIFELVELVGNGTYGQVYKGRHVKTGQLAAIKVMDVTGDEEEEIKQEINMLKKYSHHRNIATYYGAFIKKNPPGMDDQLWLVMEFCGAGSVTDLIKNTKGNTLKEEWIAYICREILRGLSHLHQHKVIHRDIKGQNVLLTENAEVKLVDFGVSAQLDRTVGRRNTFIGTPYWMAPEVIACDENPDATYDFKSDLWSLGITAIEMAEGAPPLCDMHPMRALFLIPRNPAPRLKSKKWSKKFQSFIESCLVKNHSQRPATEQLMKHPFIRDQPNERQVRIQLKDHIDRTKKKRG
pIC50: −log10 of the molar value.
So basically: pIC50 at 8 or higher? That is Yes. Lower than 8? That is No.

Ask: Reported pIC50 reaches at least 8 for NC(=O)c1nc(Nc2ccc3ccccc3c2)sc1NC(=O)c1ccc(CN2CCC(N)CC2)cc1 ?
Result: Yes

Ask: Reported pIC50 reaches at least 8 for NC(=O)c1nc(Nc2ccc3ccccc3c2)sc1NC(=O)c1ccc(NCCO)c(N)c1 ?
Result: No

Ask: Reported pIC50 reaches at least 8 for NC(=O)c1nc(Nc2ccc3ccccc3c2)sc1NC(=O)c1ccc(CN2CC(O)C2)cc1 ?
Result: Yes

Ask: Reported pIC50 reaches at least 8 for CC(C)=CC(=O)Nc1sc(Nc2ccc3cc(CO)ccc3c2)nc1C(N)=O ?
Result: Yes

Ask: Reported pIC50 reaches at least 8 for NC(=O)c1nc(Nc2ccc3ccccc3c2)sc1NC(=O)c1ccc(CN2CCNC(=O)C2)cc1 ?
Result: Yes

Ask: Reported pIC50 reaches at least 8 for NC(=O)c1nc(Nc2ccc3ccccc3c2)sc1NC(=O)c1ccc(Cn2cc(CO)nn2)cc1 ?
Result: Yes

Ask: Reported pIC50 reaches at least 8 for NC(=O)c1nc(Nc2ccc3ccccc3c2)sc1NC(=O)c1ccc(CNCCO)cc1 ?
Result: Yes

Ask: Reported pIC50 reaches at least 8 for CC(=O)Nc1ccc(C(=O)Nc2sc(Nc3cccc4ccccc34)nc2C(N)=O)cc1 ?
Result: No
